Below, each entry is listed alongside its reported composite z-score.
- Tested on: Neuregulin-1 EGF-like domain
- protocol_text: binders of neuregulin-1 EGF-like domain, primary screen, biochemical, small-molecule microarray, 635 nm fluorescence (AID 1081);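 note: binding of the protein to compounds printed on small-molecule microarray slides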
- measurement_parameters: small-molecule microarray binding, higher = more signal

Some entries whose results are on file:
C=CCOC(=O)[C@@H]1[C@H]2C(=O)O[C@H](c3ccccc3)[C@H](c3ccccc3)N2[C@H](c2ccc(OCCOC(=O)[C@H]3C[C@H]4C(=O)NCC(=O)N4[C@H]3c3ccc(O)cc3)cc2)[C@@]12C(=O)Nc1ccc(I)cc12 : 0.86
C#CCN(C/C=C/c1ccccc1)[C@H](CO[Si](C)(C)C(C)(C)C)c1ccccc1 : -0.497
COCCOC(=O)N1C(=O)[C@@]2(c3cc(C#CCCO)ccc31)[C@H](c1ccc(O)cc1)N1[C@H](c3ccccc3)[C@H](c3ccccc3)OC(=O)[C@H]1[C@@H]2C(=O)N1CCc2cc(OC)c(OC)cc2C1 : 1.32
COC(=O)[C@@]1(Cc2ccccc2CN=[N+]=[N-])COC(c2ccc(OCCCO)cc2)=N1 : 0.62
CO[C@H]1O[C@H](CO)[C@@H](OC(=O)Nc2ccccc2)[C@@H]2OC(=O)[C@H](Cc3ccccc3)C/C=C/C[C@@H](Cc3ccccc3)C(=O)O[C@@H]12 : 1.04

Continue with the compound presented below.
Can you share its composite z-score? I mean this compound: C=C(COC)/C(=C/C[C@@H](OC(C)=O)c1ccccc1OCCO)c1cc(C(=O)OC)ccc1OC
1.09
